- Protocol notes: Global population pharmacokinetic analysis of alisertib in cancer patients
- Format: in vivo, human
- Experimental conditions: human, plasma, oral, population alpha half-life, final model
Measured parameter: half-life (h)
Response body: numeric value in h, unit text excluded.

**Q:** Recorded half-life for COc1cc(Nc2ncc3c(n2)-c2ccc(Cl)cc2C(c2c(F)cccc2OC)=NC3)ccc1C(=O)O , please?
**A:** 1.71
